system: CSNK1E; details: concentration: 1 μM, replicates: in singlicate; n = 1;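 further: KINOMEscan kinase panel screen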
value-type: %Inh
Express your answer as a number followed by its unit.

Please state recorded %Inh (tested on CSNK1E) of `Cn1cc(-c2ccc3c(c2)CCN3C(=O)Cc2cc(F)cc(F)c2F)c2c(N)ncnc21` 47%

Please state recorded %Inh (tested on CSNK1E) of `Cl.N#CCc1ccc(Nc2nccc(Nc3ccc(Oc4ccccc4)cc3)n2)cc1` 8%

Please state recorded %Inh (tested on CSNK1E) of `COC(=O)Nc1nc2cc(Oc3ccc(NC(=O)Nc4cccc(SC)c4)cc3)ccc2[nH]1.Cl` 22%

Please state recorded %Inh (tested on CSNK1E) of `COc1cccc2c(-c3ccncc3)c(-c3ccc(F)cc3)nn12` 99.8%

Please state recorded %Inh (tested on CSNK1E) of `CC(C)(C)c1ccc(C(=O)Nc2cn3cc(-n4ccnc4)ccc3n2)cc1` 70%

Please state recorded %Inh (tested on CSNK1E) of `O=C(O)C(F)(F)F.O=c1[nH]ccc2nc(N[C@@H]3CCNC3)nc(Nc3ccc4c(c3)S(=O)(=O)CC4)c12` 96.3%

Please state recorded %Inh (tested on CSNK1E) of `Cc1cc(-c2ccnc(Nc3cccc(C#N)c3)n2)cc(C)c1O` 90.3%

Please state recorded %Inh (tested on CSNK1E) of `Cc1cccc(Nc2nc(NCCN)ncc2C(N)=O)c1` 84%

Please state recorded %Inh (tested on CSNK1E) of `O=C(Nc1n[nH]c2nc(-c3ccccc3O)ccc12)C1CC1` 0%

Please state recorded %Inh (tested on CSNK1E) of `CCNc1nccc(-c2c(-c3ccc(F)cc3)ncn2C2CCN(C)CC2)n1` 99.9%

Please state recorded %Inh (tested on CSNK1E) of `COC(=O)Nc1nc2ccc(Oc3ccc(NC(=O)Nc4cc(C(F)(F)F)ccc4F)cc3)cc2[nH]1.Cl` 13%

Please state recorded %Inh (tested on CSNK1E) of `Cc1ccccc1CC(=O)N1CCc2cc(-c3cn(C)c4ncnc(N)c34)ccc21` 84%

Please state recorded %Inh (tested on CSNK1E) of `CNc1nccc(-c2ccc3c(N)n[nH]c3c2)n1` 28%
